Property: EC50 (nM) GluR, cAMP formation; scope: individual binders
Biological target: human glucagon receptor (Glucagon-R) (human, UniProt P47871 26-477)
Assay: cell-based or functional assay
Square brackets hold non-standard residues; d marks the D form. Side chains are listed from the residue outwards. * marks the point of attachment. isoGlu = used interchangeably with γ-Glu; Palmitoyl = CCCCCCCCCCCCCCCC(=O)*; Aib = CC(C)(N)C(=O)O

[[record]]
binder = "HXQGTFTSDYSKYLDSKAAHDFVEWLLSA (Aib at position 2; K([2-Butyloctanoyl]-isoGlu) at position 17; C-terminal amide (NH2)) [Compound 24]"
parameter_measured = "EC50 (nM) GluR, cAMP formation"
experimental_result = "0.133 nM"

[[record]]
binder = "H-H[Aib]QGTFTSDYSKYLDSK([isoGlu-Palmitoyl])AAKDFVEWLLSA-NH2 [Compound 39]"
parameter_measured = "EC50 (nM) GluR, cAMP formation"
experimental_result = "0.24 nM"

[[record]]
binder = "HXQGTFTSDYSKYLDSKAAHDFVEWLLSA (Aib at position 2; K(Hexadecanoyl) at position 17; C-terminal amide (NH2)) [Compound 23]"
parameter_measured = "EC50 (nM) GluR, cAMP formation"
experimental_result = "0.124 nM"

[[record]]
binder = "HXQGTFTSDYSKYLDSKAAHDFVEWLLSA (Aib at position 2; K(Hexadecanoyl-[8-Aminooctanoyl]) at position 17; C-terminal amide (NH2)) [Compound 29]"
parameter_measured = "EC50 (nM) GluR, cAMP formation"
experimental_result = "0.123 nM"

[[record]]
binder = "H-H[Aib]QGTFTSDYSKYLDSKAAHDFVEWLLK([isoGlu-Palmitoyl])A-NH2 [Compound 37]"
parameter_measured = "EC50 (nM) GluR, cAMP formation"
experimental_result = "0.147 nM"

[[record]]
binder = "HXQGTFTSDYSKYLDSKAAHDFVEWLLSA (Aib at position 2; K(Hexadecanoyl-isoGlu) at position 12; C-terminal amide (NH2)) [Compound 33]"
parameter_measured = "EC50 (nM) GluR, cAMP formation"
experimental_result = "0.389 nM"

[[record]]
binder = "H-H[Aib]QGTFTSDYSKYLDEK([isoGlu-Palmitoyl])AAHDFVEWLLSA-NH2 [Compound 40]"
parameter_measured = "EC50 (nM) GluR, cAMP formation"
experimental_result = "0.18 nM"

[[record]]
binder = "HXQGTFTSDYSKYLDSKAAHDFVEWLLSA (Aib at position 2; K(Hexadecanoyl-isoGlu) at position 17; free C-terminal acid (OH)) [Compound 21]"
parameter_measured = "EC50 (nM) GluR, cAMP formation"
experimental_result = "0.15 nM"

[[record]]
binder = "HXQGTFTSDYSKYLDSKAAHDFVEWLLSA (Aib at position 2; K(Hexadecanoyl-[4-Aminobutanoyl]) at position 17; C-terminal amide (NH2)) [Compound 27]"
parameter_measured = "EC50 (nM) GluR, cAMP formation"
experimental_result = "0.147 nM"

[[record]]
binder = "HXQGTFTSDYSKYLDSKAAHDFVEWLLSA (Aib at position 2; K(Hexadecanoyl-E) (Hexadecanoyl-αGlu) at position 17; C-terminal amide (NH2)) [Compound 28]"
parameter_measured = "EC50 (nM) GluR, cAMP formation"
experimental_result = "0.108 nM"


INPUT: Would you kindly share the measured EC50 (nM) GluR, cAMP formation for HXQGTFTSDYSKYLDSXAAHDFVEWLLSA (Aib at position 2; Orn(Hexadecanoyl-isoGlu) at position 17; C-terminal amide (NH2)) [Compound 32] ?
OUTPUT: 0.193 nM

INPUT: And H-H[Aib]QGTFTSDYSKYLDSK([isoGlu-Palmitoyl])AAHDFVEWLLEA-NH2 [Compound 43] ?
OUTPUT: 0.12 nM

INPUT: And H-H[Aib]QGTFTSDYSKYLDSK([isoGlu-Palmitoyl])AAEDFVEWLLSA-NH2 [Compound 42] ?
OUTPUT: 0.27 nM
